Molecular target: Gag-Pol polyprotein (Human immunodeficiency virus type 1 group M subtype B (isolate HXB2), UniProt P04585)
Experiment: HIV-1 RT RNase H inhibitor potency, dose response, biochemical, probe assessment (AID 652)
Conditions: pH 8; 23 °C
quantity.kind: pIC50
pIC50 (log units): -log10 of the concentration in mol/L.

Below, each entry is followed by its recorded pIC50 result.
INSERT INTO assay_data (compound, meas_value) VALUES
  ('COc1ccc(N2CCN(Cc3cc(=O)oc4cc(-c5ccccc5)c(O)cc34)CC2)cc1', 5.41),
  ('CCOC(=O)c1sc(NC(=O)CSc2nnc(-c3ccccc3)[nH]2)c(C#N)c1C', 6.17);

// switching to the query compound
q: What does the data say about its pIC50? Entry: O=c1cc(CN2CCN(c3ccccc3)CC2)c2cc(O)c(-c3ccccc3)cc2o1
a: 5.30
